This collection of values is drawn from PubChem BioAssay AID1745844.

Test system: rodent lifetime carcinogenesis bioassay, tumor incidence TD50
Experiment: carcinogenic potency in animals, long-term in vivo studies, CPDB compilation (AID 1745844)
Conditions: hamster; strain Syrian Golden; males; in drinking water; site: liver; lesion: hepatoma; dosed 102 weeks; study length 102 weeks
endpoint: TD50

Incoming: For CN(N)C=O , what is its reported TD50?
Outgoing: 13.3 mg/kg/day

###

Tested on: rodent lifetime carcinogenesis bioassay, tumor incidence TD50
Test: carcinogenic potency in animals, long-term in vivo studies, CPDB compilation (AID 1745844)
Conditions: rat; strain Fischer 344; males; in feed; site: thyroid gland; lesion: follicular-cell carcinoma + papillary adenocarcinoma; dosed 74 weeks; study length 101 weeks
endpoint: TD50 (mg/kg/day)
Numbers only; they are read as mg/kg/day.

Incoming: Record request: TD50 value, item O=[N+]([O-])c1ccc2c3c(cccc13)CC2
Outgoing: 37.7

###

System: rodent lifetime carcinogenesis bioassay, tumor incidence TD50
Assay: carcinogenic potency in animals, long-term in vivo studies, CPDB compilation (AID 1745844)
Settings: rat; strain Fischer 344; males; inhaled; site: liver; lesion: hepatocellular adenoma; dosed 113 weeks; study length 113 weeks
endpoint: TD50

Incoming: Please look up its TD50: CCC(C)=NO
Outgoing: 118 mg/kg/day

###

Test system: rodent lifetime carcinogenesis bioassay, tumor incidence TD50
Assay: carcinogenic potency in animals, long-term in vivo studies, CPDB compilation (AID 1745844)
Settings: rat; strain MRC-Wistar; females; in drinking water; site: all sites; lesion: myelocytic leukemia; dosed 39 weeks; study length 85 weeks
Calls of active or inactive are those of the source. How the calls were made is not given here.
Pick one: true = active, false = inactive

{"compound_string": "NC(=O)N(CCO)N=O", "answer_label": "false"}

Let's switch to this compound now.
Incoming: Hi, do you know how CCCCN(N=O)C(N)=O came out in this test?
Outgoing: true

###

Tested on: rodent lifetime carcinogenesis bioassay, tumor incidence TD50
Experiment: carcinogenic potency in animals, long-term in vivo studies, CPDB compilation (AID 1745844)
Details: rat; strain Marshall; males; by gavage; site: testis; lesion: interstitial-cell tumor, malignant; dosed 103 weeks; study length 104 weeks
endpoint: TD50 (mg/kg/day)
# value in mg/kg/day; strip the unit string

Incoming: Entry ClC=C(Cl)Cl : reported TD50 = ?
Outgoing: 6540

###

Tested on: rodent lifetime carcinogenesis bioassay, tumor incidence TD50
Test: carcinogenic potency in animals, long-term in vivo studies, CPDB compilation (AID 1745844)
Conditions: rat; strain Fischer 344; females; in drinking water; site: esophagus; lesion: carcinoma; dosed 42 weeks; study length 55 weeks
endpoint: TD50 (mg/kg/day)
Numeric answer only, unit mg/kg/day assumed.

Incoming: Consider the molecule shown here: CC(O)CN(CC(C)O)N=O (stereo unspecified) What is its recorded TD50?
Outgoing: 1.25

###

Test system: rodent lifetime carcinogenesis bioassay, tumor incidence TD50
Test: carcinogenic potency in animals, long-term in vivo studies, CPDB compilation (AID 1745844)
Conditions: mouse; strain Swiss albino; females; in drinking water; site: liver; lesion: angioma; dosed 79 weeks; study length 79 weeks
The source made the active and inactive calls. No rule for the calls is given here.
endpoint: TD50

Incoming: Fill blank: measured TD50 of the compound NC(=O)NNc1ccccc1 is ____.
Outgoing: 2670 mg/kg/day (inactive)

###

System: rodent lifetime carcinogenesis bioassay, tumor incidence TD50
Assay: carcinogenic potency in animals, long-term in vivo studies, CPDB compilation (AID 1745844)
Conditions: rat; strain Charles River CD (Sprague-Dawley); females; inhaled; site: Zymbal's gland; lesion: squamous-cell carcinoma, sebaceous; dosed 78 weeks; study length 78 weeks
endpoint: TD50 (mg/kg/day)
Output spec: scalar in mg/kg/day, unitless text.

Incoming: Look up TD50: C=CF
Outgoing: 684

###

System: rodent lifetime carcinogenesis bioassay, tumor incidence TD50
Experiment: carcinogenic potency in animals, long-term in vivo studies, CPDB compilation (AID 1745844)
Conditions: mouse; strain CD-1 HaM/ICR; males; in feed; site: all sites; lesion: all vascular tumors; dosed 55 weeks; study length 60 weeks
endpoint: TD50

Incoming: May I ask what TD50 has been recorded for Cc1cc(Cl)ccc1N ?
Outgoing: 15.4 mg/kg/day

###

Tested on: rodent lifetime carcinogenesis bioassay, tumor incidence TD50
Experiment: carcinogenic potency in animals, long-term in vivo studies, CPDB compilation (AID 1745844)
Details: rat; strain F344/DuCrj; females; in drinking water; site: mammary gland; lesion: adenoma; dosed 104 weeks; study length 105 weeks
endpoint: TD50

Incoming: Which TD50 reading was recorded for the compound C1COCCO1 ?
Outgoing: 772 mg/kg/day

###

Test system: rodent lifetime carcinogenesis bioassay, tumor incidence TD50
Assay: carcinogenic potency in animals, long-term in vivo studies, CPDB compilation (AID 1745844)
Conditions: mouse; strain B6C3F1; males; inhaled; site: subcutaneous tissue; lesion: hemangiosarcoma; dosed 82 weeks; study length 104 weeks
endpoint: TD50 (mg/kg/day)
Quick note: give the figure in mg/kg/day, leave out the unit.

Incoming: Given the entry C=CC=C , what TD50 was observed with rodent lifetime carcinogenesis bioassay, tumor incidence TD50?
Outgoing: 666

###

Test system: rodent lifetime carcinogenesis bioassay, tumor incidence TD50
Assay: carcinogenic potency in animals, long-term in vivo studies, CPDB compilation (AID 1745844)
Details: mouse; strain BALB/cStCrlfC3Hf/Nctr; males; in drinking water; site: lung; lesion: adenocarcinoma; dosed 112 weeks; study length 112 weeks
endpoint: TD50

Incoming: Recorded TD50 of Cc1cc(-c2ccc(N)c(C)c2)ccc1N , please.
Outgoing: 50.1 mg/kg/day

###

Tested on: rodent lifetime carcinogenesis bioassay, tumor incidence TD50
Experiment: carcinogenic potency in animals, long-term in vivo studies, CPDB compilation (AID 1745844)
Details: mouse; strain Swiss; females; in drinking water; site: any site (literature study); lesion: malignant tumor; dosed 78 weeks; study length 151 weeks
endpoint: TD50

Incoming: I am curious: what TD50 value has been reported for C=COC(C)=O ?
Outgoing: 3440 mg/kg/day

###

Test system: rodent lifetime carcinogenesis bioassay, tumor incidence TD50
Experiment: carcinogenic potency in animals, long-term in vivo studies, CPDB compilation (AID 1745844)
Details: mouse; strain Swiss albino; females; in drinking water; site: gall bladder; lesion: several types; types named in the paper; dosed 99 weeks; study length 100 weeks
endpoint: TD50 (mg/kg/day)
The answer is to be given in mg/kg/day; state only the numeric part.

Incoming: Value lookup for TD50; key = CN(N)C=O
Outgoing: 57.9

###

Test system: rodent lifetime carcinogenesis bioassay, tumor incidence TD50
Experiment: carcinogenic potency in animals, long-term in vivo studies, CPDB compilation (AID 1745844)
Conditions: rat; strain Charles River CD (Sprague-Dawley); both sexes; inhaled; site: nasal cavity; lesion: several types; types named in the paper; dosed 72 weeks; study length 104 weeks
endpoint: TD50

Incoming: Given CN(C)P(=O)(N(C)C)N(C)C , state its recorded TD50.
Outgoing: 0.0344 mg/kg/day

###

Tested on: rodent lifetime carcinogenesis bioassay, tumor incidence TD50
Experiment: carcinogenic potency in animals, long-term in vivo studies, CPDB compilation (AID 1745844)
Settings: rat; strain Wistar; females; in drinking water; site: thyroid gland; lesion: follicular-cell carcinoma; dosed 104 weeks; study length 104 weeks
endpoint: TD50

Incoming: Which TD50 is reported for this compound? O=C1OC(O)C(C(Cl)Cl)=C1Cl (stereo unspecified)
Outgoing: 5.2 mg/kg/day

###

Test system: rodent lifetime carcinogenesis bioassay, tumor incidence TD50
Assay: carcinogenic potency in animals, long-term in vivo studies, CPDB compilation (AID 1745844)
Settings: rat; strain Charles River CD (Sprague-Dawley); males; by gavage; site: any site (literature study); lesion: several types; types named in the paper; dosed 104 weeks; study length 104 weeks
Calls of active or inactive are those of the source. The rule behind the calls is not given here.
endpoint: TD50

Incoming: Reported TD50 for Cn1cc(OCC(O)CNC(C)(C)C)c2ccccc2c1=O (stereo unspecified) : what is it?
Outgoing: 128 mg/kg/day (inactive)

###

Test system: rodent lifetime carcinogenesis bioassay, tumor incidence TD50
Assay: carcinogenic potency in animals, long-term in vivo studies, CPDB compilation (AID 1745844)
Details: mouse; strain Swiss; males; in drinking water; site: lung; lesion: adenocarcinoma; dosed 113 weeks; study length 113 weeks
endpoint: TD50 (mg/kg/day)
Could you give me the number in mg/kg/day? Just the number is fine.

Incoming: Requested read-out: TD50. Entry: NN
Outgoing: 6.19

###

Test system: rodent lifetime carcinogenesis bioassay, tumor incidence TD50
Assay: carcinogenic potency in animals, long-term in vivo studies, CPDB compilation (AID 1745844)
Conditions: rat; strain Osborne-Mendel; females; by gavage; site: liver; lesion: hepatocellular adenoma + hepatocellular carcinoma + neoplastic nodule; dosed 103 weeks; study length 104 weeks
endpoint: TD50 (mg/kg/day)
Please reply with the bare figure in mg/kg/day and do not write the unit itself.

Incoming: Please look up its TD50: ClC=C(Cl)Cl
Outgoing: 3500

###

System: rodent lifetime carcinogenesis bioassay, tumor incidence TD50
Assay: carcinogenic potency in animals, long-term in vivo studies, CPDB compilation (AID 1745844)
Details: rat; strain Fischer 344; females; in drinking water; site: liver; lesion: several types; types named in the paper; dosed 100 weeks; study length 128 weeks
endpoint: TD50

Incoming: Query for rodent lifetime carcinogenesis bioassay, tumor incidence TD50: what TD50 does the record show for O=NN1CC=CCC1 ?
Outgoing: 0.132 mg/kg/day
